Each recorded value in this set is attributed to patent US20250346597A1.

Target: DGKα (Homo sapiens (Human)); further: full length DGKα 7.5 nM
Sequence (P23743 whole entry): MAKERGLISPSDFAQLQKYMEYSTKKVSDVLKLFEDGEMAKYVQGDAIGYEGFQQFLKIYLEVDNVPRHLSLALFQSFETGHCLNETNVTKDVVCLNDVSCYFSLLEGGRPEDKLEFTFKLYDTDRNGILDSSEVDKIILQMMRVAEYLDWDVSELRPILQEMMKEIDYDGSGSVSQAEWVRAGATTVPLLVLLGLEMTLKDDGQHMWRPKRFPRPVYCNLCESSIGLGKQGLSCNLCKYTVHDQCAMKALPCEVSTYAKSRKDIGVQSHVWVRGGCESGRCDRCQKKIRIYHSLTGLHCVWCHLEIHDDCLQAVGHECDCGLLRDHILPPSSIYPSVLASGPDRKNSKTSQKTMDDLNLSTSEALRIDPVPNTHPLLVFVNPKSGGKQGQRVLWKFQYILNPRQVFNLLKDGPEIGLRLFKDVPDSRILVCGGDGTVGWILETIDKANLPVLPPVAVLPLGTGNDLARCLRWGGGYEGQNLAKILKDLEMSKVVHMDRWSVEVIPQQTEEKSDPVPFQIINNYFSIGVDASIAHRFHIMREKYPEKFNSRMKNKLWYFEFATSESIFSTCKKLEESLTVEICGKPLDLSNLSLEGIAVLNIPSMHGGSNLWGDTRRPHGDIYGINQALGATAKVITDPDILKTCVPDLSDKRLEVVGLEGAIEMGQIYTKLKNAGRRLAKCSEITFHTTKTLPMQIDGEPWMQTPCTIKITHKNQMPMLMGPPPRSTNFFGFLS
Documented IC50 across a set of compounds
reported_endpoint: IC50 (nM)

compound: CC[C@H]1CN(C(C)c2ccc(OC3CCOC3)cc2F)[C@H](CC)CN1c1cc(=O)n(C)c2cn(CC#N)nc12 (stereo partly drawn)
reported_endpoint: IC50
relational_operator: =
reported_measurement: 838
--
compound: CC[C@H]1CN(C(C)c2cnc3ncsc3c2)[C@H](CC)CN1c1cc(=O)n(C)c2cn(CC#N)nc12 (single isomer, unassigned) [Compound A98b]
reported_endpoint: IC50
relational_operator: =
reported_measurement: 9470
--
compound: CC[C@H]1CN(C(C)c2ccc(OC3COC3)c(C)c2)[C@H](CC)CN1c1cc(=O)n(C)c2cn(CC#N)nc12 (single isomer, unassigned) [Compound A21b]
reported_endpoint: IC50
relational_operator: >
reported_measurement: 150000
--
compound: CC#CCn1cc2c(n1)c(N1C[C@@H](CC)N(C(C)c3ccc4c(n3)OCC4)C[C@@H]1C)cc(=O)n2C (stereo partly drawn)
reported_endpoint: IC50
relational_operator: <
reported_measurement: 23.3
--
compound: CC[C@H]1CN(C(C)c2ccn3nccc3n2)[C@H](CC)CN1c1cc(=O)n(C)c2cn(CC#N)nc12 (single isomer, unassigned) [Compound A154b]
reported_endpoint: IC50
relational_operator: =
reported_measurement: 12
--
compound: CCC(c1ccn2nc(C)cc2n1)N1C[C@H](C)N(c2cc(=O)n(C)c3cn(CC#N)nc23)C[C@H]1CC (single isomer, unassigned) [Compound A171a]
reported_endpoint: IC50
relational_operator: =
reported_measurement: 107
